- experimental protocol: Cytotoxicity against MDCK cells after 2 days by MTT assay
- Assay type: cell-based, Canis lupus familiaris
- condition description: dog
Answer each item with its documented CC50 at 48 h.
The answer is to be given in µM; state only the numeric part.

Query: Name the reported CC50 at 48 h value associated with the molecule "COC(=O)[C@]12CCC(C)(C)C[C@H]1C1=CC(=O)[C@@H]3[C@@]4(C)CC[C@H](O[C@@H]5O[C@H](CO)[C@@H](O[C@@H]6O[C@@H](C)[C@H](O)[C@@H](O)[C@H]6O)[C@H](O)[C@H]5O[C@@H]5O[C@@H](C)[C@H](O)[C@@H](O)[C@H]5O)C(C)(C)[C@@H]4CC[C@@]3(C)[C@]1(C)CC2"
Result: 33.8

Query: Ok, now "COC(=O)[C@]12CCC(C)(C)C[C@H]1C1=CC[C@@H]3[C@@]4(C)CC[C@H](O[C@@H]5O[C@H](CO)[C@@H](O)[C@H](O)[C@H]5O[C@@H]5O[C@@H](C)[C@H](O)[C@@H](O)[C@H]5O)C(C)(C)[C@@H]4CC[C@@]3(C)[C@]1(C)CC2"
Result: 23.6

----------
- experimental protocol: Selectivity index, ratio of CC50 for MDCK cells to IC50 for Influenza A virus (A/Thailand/Kan353/2004(H5N1)
- Type: toxicity
- condition description: dog, read-out: Ratio CC50/IC50
assay readout: selectivity ratio

Query: Name the reported selectivity ratio value associated with the compound "C[C@@H]1O[C@@H](O[C@H]2[C@H](O[C@@H]3CC[C@]4(C)[C@H]5CC=C6[C@@H]7CC(C)(C)CC[C@]7(C(=O)OCc7ccccc7)CC[C@@]6(C)[C@]5(C)CC[C@H]4C3(C)C)O[C@H](CO)[C@@H](O[C@@H]3O[C@@H](C)[C@H](O)[C@@H](O)[C@H]3O)[C@@H]2O)[C@H](O)[C@H](O)[C@H]1O"
Result: > 34

----------
- experimental protocol: Selectivity index, ratio of CC50 for MDCK cells to IC50 for Influenza A virus (A/Thailand/Kan353/2004(H5N1)
- Type: toxicity
- condition description: dog, read-out: Ratio CC50/IC50
assay readout: selectivity ratio
Answer as a number with no unit attached.

Query: Name the reported selectivity ratio value associated with the compound "C[C@@H]1O[C@@H](O[C@H]2[C@H](O[C@H]3CC[C@]4(C)[C@H]5CC=C6[C@@H]7CC(C)(C)CC[C@]7(C(=O)OCc7ccccc7)CC[C@@]6(C)[C@]5(C)CC[C@H]4C3(C)C)O[C@H](CO)[C@@H](O[C@@H]3O[C@@H](C)[C@H](O)[C@@H](O)[C@H]3O)[C@@H]2O)[C@H](O)[C@H](O)[C@H]1O"
Result: 4.9

Query: Ok, now "COC(=O)[C@]12CCC(C)(C)C[C@H]1C1=CC[C@@H]3[C@@]4(C)CC[C@H](O[C@@H]5O[C@H](CO)[C@@H](O[C@@H]6O[C@@H](C)[C@H](O)[C@@H](O)[C@H]6O)[C@H](O)[C@H]5O[C@@H]5O[C@@H](C)[C@H](O)[C@@H](O)[C@H]5O)C(C)(C)[C@@H]4CC[C@@]3(C)[C@]1(C)CC2"
Result: 3.6

----------
Answer each item with its documented selectivity ratio.
- experimental protocol: Selectivity index, ratio of CC50 for MDCK cells to IC50 for Influenza A virus (A/Thailand/Kan353/2004(H5N1)
- Assay type: toxicity
- condition description: dog, read-out: Ratio CC50/IC50
Answer as a number with no unit attached.

Query: Name the reported selectivity ratio value associated with the compound "C[C@H]1O[C@H](O[C@@H]2[C@H](O)[C@@H](O[C@H]3O[C@H](C)[C@@H](O)[C@H](O)[C@@H]3O)[C@H](O[C@H]3CC[C@]4(C)[C@H]5CC=C6[C@@H]7CC(C)(C)CC[C@]7(C(=O)OCc7ccccc7)CC[C@@]6(C)[C@]5(C)CC[C@H]4C3(C)C)O[C@@H]2CO)[C@@H](O)[C@@H](O)[C@@H]1O"
Result: 8.8

Query: Ok, now "O=C(NCCN1CCCCC1)c1cc(F)cc(C(F)(F)F)c1"
Result: 332

Query: Ok, now "COC(=O)[C@]12CCC(C)(C)C[C@H]1C1=CC(=O)[C@@H]3[C@@]4(C)CC[C@H](O[C@@H]5O[C@H](CO)[C@@H](O[C@@H]6O[C@@H](C)[C@H](O)[C@@H](O)[C@H]6O)[C@H](O)[C@H]5O[C@@H]5O[C@@H](C)[C@H](O)[C@@H](O)[C@H]5O)C(C)(C)[C@@H]4CC[C@@]3(C)[C@]1(C)CC2"
Result: 8.3

Query: Ok, now "C[C@@H]1O[C@@H](O[C@H]2[C@H](O[C@H]3CC[C@]4(C)[C@H]5C(=O)C=C6[C@@H]7CC(C)(C)CC[C@]7(C(=O)OCc7ccccc7)CC[C@@]6(C)[C@]5(C)CC[C@H]4C3(C)C)O[C@H](CO)[C@@H](O[C@@H]3O[C@@H](C)[C@H](O)[C@@H](O)[C@H]3O)[C@@H]2O)[C@H](O)[C@H](O)[C@H]1O"
Result: 22.9

Query: Ok, now "COC(=O)[C@]12CCC(C)(C)C[C@H]1C1=CC[C@@H]3[C@@]4(C)CC[C@H](O[C@@H]5O[C@H](CO)[C@H](O[C@H]6O[C@H](C)[C@@H](O)[C@H](O)[C@@H]6O)[C@H](O)[C@H]5O[C@H]5O[C@H](C)[C@@H](O)[C@H](O)[C@@H]5O)C(C)(C)[C@@H]4CC[C@@]3(C)[C@]1(C)CC2"
Result: 4.1

Query: Ok, now "C[C@@H]1O[C@H](O[C@H]2[C@H](O[C@H]3CC[C@]4(C)[C@H]5CC=C6[C@@H]7CC(C)(C)CC[C@]7(C(=O)OCc7ccccc7)CC[C@@]6(C)[C@]5(C)CC[C@H]4C3(C)C)O[C@H](CO)[C@@H](O[C@H]3O[C@@H](C)[C@@H](O)[C@@H](O)[C@@H]3O)[C@@H]2O)[C@@H](O)[C@H](O)[C@@H]1O"
Result: 3.2

Query: Ok, now "COC(=O)[C@]12CCC(C)(C)C[C@H]1C1=CC[C@@H]3[C@@]4(C)CC[C@H](O[C@@H]5O[C@H](CO)[C@@H](O)[C@H](O)[C@H]5O[C@@H]5O[C@@H](C)[C@H](O)[C@@H](O)[C@H]5O)C(C)(C)[C@@H]4CC[C@@]3(C)[C@]1(C)CC2"
Result: 1.4

----------
- experimental protocol: Antiviral activity against Influenza A virus (A/Thailand/Kan353/2004(H5N1)) co-expressing NA plasmid infected in 293T cells assessed as inhibition of viral entry incubated for 30 mins followed by addition of cells measured after 48 hrs by luciferase reporter gene assay
- Format: functional, cell-based
- condition description: HEK-293T
assay readout: IC50

Query: Name the reported IC50 value associated with the compound "CC1(C)CC[C@]2(C(=O)OCc3ccccc3)CC[C@]3(C)C(=CC[C@@H]4[C@@]5(C)CC[C@H](O[C@@H]6O[C@H](CO)[C@@H](O[C@@H]7OC[C@@H](O)[C@@H](O)[C@@H]7O)[C@H](O)[C@H]6O[C@@H]6OC[C@@H](O)[C@@H](O)[C@@H]6O)C(C)(C)[C@@H]5CC[C@]43C)[C@@H]2C1"
Result: > 50 µM

Query: Ok, now "CC1(C)CC[C@]2(C(=O)OCc3ccccc3)CC[C@]3(C)C(=CC[C@@H]4[C@@]5(C)CC[C@H](O[C@@H]6O[C@H](CO)[C@@H](O[C@H]7OC[C@@H](O)[C@H](O)[C@H]7O)[C@H](O)[C@H]6O[C@H]6OC[C@@H](O)[C@H](O)[C@H]6O)C(C)(C)[C@@H]5CC[C@]43C)[C@@H]2C1"
Result: > 50 µM

Query: Ok, now "C[C@@H]1O[C@@H](O[C@H]2[C@H](O[C@H]3CC[C@]4(C)[C@H]5C(=O)C=C6[C@@H]7CC(C)(C)CC[C@]7(C(=O)OCc7ccccc7)CC[C@@]6(C)[C@]5(C)CC[C@H]4C3(C)C)O[C@H](CO)[C@@H](O[C@@H]3O[C@@H](C)[C@H](O)[C@@H](O)[C@H]3O)[C@@H]2O)[C@H](O)[C@H](O)[C@H]1O"
Result: 4.05 µM

----------
Answer each item with its documented CC50 at 48 h.
- experimental protocol: Cytotoxicity against MDCK cells after 2 days by MTT assay
- Assay type: cell-based, Canis lupus familiaris
- condition description: dog
The answer is to be given in µM; state only the numeric part.

Query: Name the reported CC50 at 48 h value associated with the molecule "COC(=O)[C@]12CCC(C)(C)C[C@H]1C1=CC[C@@H]3[C@@]4(C)CC[C@H](O[C@@H]5O[C@H](CO)[C@@H](O)[C@H](O[C@@H]6O[C@@H](C)[C@H](O)[C@@H](O)[C@H]6O)[C@H]5O)C(C)(C)[C@@H]4CC[C@@]3(C)[C@]1(C)CC2"
Result: 25.3

Query: Ok, now "COC(=O)[C@]12CCC(C)(C)C[C@H]1C1=CC[C@@H]3[C@@]4(C)CC[C@H](O[C@@H]5O[C@H](CO)[C@@H](O)[C@H](O[C@@H]6O[C@@H](C)[C@H](O)[C@@H](O)[C@H]6O)[C@H]5O[C@@H]5O[C@@H](C)[C@H](O)[C@@H](O)[C@H]5O)C(C)(C)[C@@H]4CC[C@@]3(C)[C@]1(C)CC2"
Result: 22.4

Entry source: ChEMBL document CHEMBL4052707
